System: UO-31 renal
Test: NCI tumour cell line growth inhibition, 48 h
MEASURED_METRIC: TGI

TGI for Cc1csc(=Nc2ccccc2)n1CCC(O)(P(=O)(O)O)P(=O)(O)O ? > 100 µM

TGI for CC(=O)n1c2ccc(Br)cc2c2nc3ccccc3nc21 ? > 100 µM

TGI for NCCc1ccc(S(=O)(=O)O)cc1[N+](=O)[O-] ? > 100 µM

TGI for N#Cc1c(CC(=O)O)cc(=O)n2c1[nH]c1ccccc12 ? > 100 µM

TGI for C[C@H]1CCC/C=C/[C@@H]2C[C@H](OC(=O)CN(C)C)C[C@H]2[C@H](O)/C=C/C(=O)O1 ? 1.48 µM

TGI for N#CC1=C(N)Oc2c(ccc3ccccc23)C1c1cc2ccccc2n2nnnc12 (stereo not given) ? > 100 µM

More entries:
TGI for CN(C)CCCC1(c2ccc(F)cc2)OCc2cc(-c3csc4ccccc34)ccc21 (stereo not given) ? 2.62 µM

TGI for CCOc1ccc(OP2(=O)NC(=O)C=C(C)N2)cc1 (stereo not given) ? > 100 µM

TGI for C=C1CC[C@@H]2[C@](C)(COC(=O)CCC(=O)OC)CCC[C@@]2(C)[C@@H]1CCC1=CC(=O)OC1 ? > 100 µM

TGI for Cc1nc2ccccc2n1Cc1nnc(-c2ccccc2)o1 ? > 100 µM

TGI for CNCc1cccc2c1OCCOCCOCCNS(=O)(=O)c1ccc(cc1)-c1cnc(N)c(n1)C(=O)N2 ? 23.1 µM

TGI for COC(=O)/C=C1\C(CO[Si](C)(C)C(C)(C)C)OC(n2ccc(=O)[nH]c2=O)C1O (stereo not given) ? 29.6 µM

TGI for c1ccc(C(NC2=NCCO2)C2CC2)cc1 (stereo not given) ? > 100 µM

TGI for CC1=N/C(=C\c2ccc(C)cc2)C(=O)O1 ? > 100 µM

TGI for O=S1(=O)C(=C(c2ccccc2)c2ccccc2)S(=O)(=O)c2ccccc21 ? > 100 µM

TGI for Cc1ccc2c(=O)cc(-c3cc(C)sc3C)[nH]c2n1 ? > 100 µM

TGI for O=C(NO)c1ccc(CNc2cccc3nc(C4CC4)n(-c4ccccc4)c(=O)c23)cc1 ? 2.96 µM

TGI for CCOC(=O)C#Cc1c(C(=O)OCC)nnn1[C@@H]1O[C@H](COC)[C@@H](OC)[C@H]1OC ? 4.38 µM

TGI for ON1CCc2c([nH]c3ccccc23)C1c1ccc(Cl)cc1 (stereo not given) ? 91.7 µM

TGI for O=C(/C=C(\[O-])c1ccccc1)CCCCCCC(=O)/C=C(\[O-])c1ccccc1.O=C(/C=C(\[O-])c1ccccc1)CCCCCCC(=O)/C=C(\[O-])c1ccccc1.O=C(/C=C(\[O-])c1ccccc1)CCCCCCC(=O)/C=C(\[O-])c1ccccc1.[Y+3].[Y+3] ? > 50 µM

----------
System: K-562 leukemia
Test: NCI tumour cell line growth inhibition, 48 h
MEASURED_METRIC: TGI

// solved cases for TGI follow
Form: Entry = COc1cc(Nc2nc3cc(C)ccc3nc2-c2ccccc2)cc(OC)c1OC | System = K-562 leukemia | TGI = ____ > 100 µM

Form: Entry = Cc1nc2ccccc2n1Cc1nnc(-c2ccccc2)o1 | System = K-562 leukemia | TGI = ____ > 100 µM

Form: Entry = COc1nc(N)nc2nc[nH]c12 | System = K-562 leukemia | TGI = ____ > 1000 µM

Form: Entry = Cc1cccc(C)c1NC(=O)C(=O)CC(=O)c1sc(Nc2c(C)cccc2C)nc1C | System = K-562 leukemia | TGI = ____ > 100 µM

Form: Entry = O=C(NC1CCCCC1)c1n[nH]nc1Cl | System = K-562 leukemia | TGI = ____ > 100 µM

Form: Entry = O=c1oc2ccccc2c(-c2ccc(O)cc2)c1Oc1ccccc1 | System = K-562 leukemia | TGI = ____ > 100 µM

More entries:
Form: Entry = CN(c1ccccc1)c1c2ccccc2nc2[nH]c3ccccc3c12 | System = K-562 leukemia | TGI = ____ > 56.8 µM

Form: Entry = CC(C)=CCC[C@@H](C)C1=C(N)C(O)=C(C)C(=O)C1=O | System = K-562 leukemia | TGI = ____ > 75 µM

Form: Entry = FC(F)(F)c1cccc(CNC2CCN(CCc3ccccc3)CC2)c1 | System = K-562 leukemia | TGI = ____ 42.9 µM

Form: Entry = CC(C)(CCCCC(C)(C)NC1=NCCO1)NC1=NCCO1 | System = K-562 leukemia | TGI = ____ > 10 µM

Form: Entry = N#Cc1c(CC(=O)O)cc(=O)n2c1[nH]c1ccccc12 | System = K-562 leukemia | TGI = ____ > 100 µM

Form: Entry = C[C@H]1CCC/C=C/[C@@H]2C[C@H](OC(=O)CN(C)C)C[C@H]2[C@H](O)/C=C/C(=O)O1 | System = K-562 leukemia | TGI = ____ > 100 µM

----------
Tested on: COLO 205 colon
Assay: NCI tumour cell line growth inhibition, 48 h
Catalogue of GI50 readings, one per entry.

// solved cases for GI50 follow
GI50 for C=CCN(CC=C)Cc1c[nH]c2ccccc12 ? 18400 nM

GI50 for C#CCCCCCC(=O)N[C@H]1C=C[C@@H]2/C=C(C)/C=C/[C@@H](C)[C@H]([C@H](C)[C@H](O)[C@@H](C)NC(C)=O)OC(=O)/C=C/C=C(C)\C=C\[C@]2(C)C1 ? 4.14 nM

More entries:
GI50 for COc1cc(NC(=O)COc2ccccc2)c(C(N)=O)cc1OC ? 453 nM

----------
Test system: T-47D breast
Assay: NCI tumour cell line growth inhibition, 48 h
MEASURED_METRIC: GI50

// solved cases for GI50 follow
GI50 for COc1cc2c(cc1C)NC(=O)/C2=C\c1ccc(Oc2ccccc2)cc1 ? 15.1 µM

GI50 for COc1cc2c3c(n(CCCN)c(=O)c2cc1OC)-c1ccc(N)cc1C3=O ? 0.842 µM

GI50 for O=C1NC(=O)N(S(=O)(=O)c2cc(C(=O)Nc3ccc(Cl)cc3)c(Cl)cc2S)S(=O)(=O)N1 ? 6.65 µM

GI50 for CN(c1ccccc1)c1c2ccccc2nc2[nH]c3ccccc3c12 ? 3.84 µM

Here is the next item to consider.
GI50 for CN1CCN(C(=O)/C=C/c2ccc([N+](=O)[O-])o2)CC1 ? 18.1 µM

----------
Tested on: U251 CNS
Experiment: NCI tumour cell line growth inhibition, 48 h
Catalogue of TGI readings, one per entry.
# output: bare number, implied unit µM

// solved cases for TGI follow
TGI for CCOC(=O)c1c(C)n(-c2ccc(C)cc2)c(=O)c2ccccc2c(=O)c2c(=O)ccc(=O)c1=2 ? 44.9

TGI for O=c1c2cc(Br)ccc2nc(CNc2ccccc2)n1-c1ccccc1 ? 31.8

TGI for O=c1oc2ccccc2c(-c2ccc(O)cc2)c1Oc1ccccc1 ? 24.9

More entries:
TGI for COc1ccc(-c2c(Nc3ccccn3)nc3c(C4=CCCCC4)c(-c4ccccc4)[nH]n3c2=O)cc1 ? 17.9

----------
System: RXF 393 renal
Experiment: NCI tumour cell line growth inhibition, 48 h
MEASURED_METRIC: TGI (µM)
# output: bare number, implied unit µM

// solved cases for TGI follow
Form: Entry = O=C(CC1(O)C(=O)Nc2c(Cl)ccc(Cl)c21)c1ccc(Cl)cc1 (stereo not drawn) | System = RXF 393 renal | TGI = ____ 56.8

Form: Entry = COC(=O)c1sc(=S)sc1SCc1cccc(CSc2sc(=S)sc2C(=O)OC)c1 | System = RXF 393 renal | TGI = ____ 34.3

Form: Entry = CC(C)CCCC(C)C1CCC2C3CC([N+](=O)[O-])=C4CC(O)CCC4(C)C3CCC12C (stereo not drawn) | System = RXF 393 renal | TGI = ____ 50.9

More entries:
Form: Entry = CC1OC(OC2C(OC(=O)[C@]34CCC(C)(C)C[C@H]3C3=CC[C@@H]5[C@@]6(C)CC[C@H](OC7OC(CO)C(O)C(O)C7OC7OC(CO)C(O)C(O)C7O)C(C)(C)[C@@H]6CC[C@@]5(C)[C@]3(C)CC4)OCC(O)C2O)C(O)C(O)C1OC1OCC(O)C(O)C1O (stereo partly drawn) | System = RXF 393 renal | TGI = ____ 25.4

Form: Entry = CCOC(=O)C#Cc1c(C(=O)OCC)nnn1[C@@H]1O[C@H](COC)[C@@H](OC)[C@H]1OC | System = RXF 393 renal | TGI = ____ 4.14

Form: Entry = CCCCCCCCCCN=C(N)c1ccc(N2CCN(c3ccc(C(N)=NCCCCCCCCCC)cc3)CC2)cc1 | System = RXF 393 renal | TGI = ____ 36.1

Form: Entry = CN(C)c1ccc(/C=N/N=C(\C#N)[S][Sn]([Cl])([c]2ccccc2)[c]2ccccc2)cc1 | System = RXF 393 renal | TGI = ____ 2.72

Form: Entry = CN(c1ccccc1)c1c2ccccc2nc2[nH]c3ccccc3c12 | System = RXF 393 renal | TGI = ____ 38.7

Form: Entry = COc1ccc(-n2c(=O)c3ccccc3n(Cc3ccc(C(=O)NO)cc3)c2=O)cc1 | System = RXF 393 renal | TGI = ____ 3.34

Form: Entry = COC1=CC(=O)C(O)=C(CC2(C)C(C)CCC3(C)C2CCCC3(C)C)C1=O (stereo not drawn) | System = RXF 393 renal | TGI = ____ 7.79

Form: Entry = COc1cc2c3c(n(CCCN)c(=O)c2cc1OC)-c1ccc(N)cc1C3=O | System = RXF 393 renal | TGI = ____ 7.22
